Value source: patent US20030125234A1

# TEST SYSTEM: human apolactoferrin (HLF) (Homo sapiens)
# Construct: purchased Sigma
# Sequence (P02788 20-710): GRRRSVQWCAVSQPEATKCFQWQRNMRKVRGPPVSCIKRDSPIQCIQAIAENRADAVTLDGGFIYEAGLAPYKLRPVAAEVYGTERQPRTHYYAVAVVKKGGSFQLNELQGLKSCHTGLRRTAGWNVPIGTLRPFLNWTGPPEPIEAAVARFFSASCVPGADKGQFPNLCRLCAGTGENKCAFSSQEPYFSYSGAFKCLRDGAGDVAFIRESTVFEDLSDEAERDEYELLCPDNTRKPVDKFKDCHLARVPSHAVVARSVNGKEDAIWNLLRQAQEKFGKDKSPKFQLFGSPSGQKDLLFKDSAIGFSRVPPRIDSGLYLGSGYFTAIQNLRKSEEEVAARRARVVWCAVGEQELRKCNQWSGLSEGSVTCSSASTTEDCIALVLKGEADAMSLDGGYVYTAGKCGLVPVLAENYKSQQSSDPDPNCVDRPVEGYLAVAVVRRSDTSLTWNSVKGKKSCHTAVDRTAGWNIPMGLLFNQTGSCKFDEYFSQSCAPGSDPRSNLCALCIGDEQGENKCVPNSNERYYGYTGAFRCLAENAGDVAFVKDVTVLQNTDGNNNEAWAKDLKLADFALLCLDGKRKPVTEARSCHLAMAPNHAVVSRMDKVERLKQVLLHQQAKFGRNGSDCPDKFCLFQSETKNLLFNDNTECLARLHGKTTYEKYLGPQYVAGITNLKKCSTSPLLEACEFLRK
# EXPERIMENT SUMMARY: HLF aggregation (turbidity at 360 nm) induced by DTT
# Type: biochemical
# ASSAY CONTEXT: HLF 0.4 mg/mL, 43° C., DTT; second HLF column, head 10,000×; standard deviation in parenthesis
MEASUREMENT LABEL: inhibition index

# count of solved cases: 4
>>> obs_value("O=C(O)CCCC(=O)O [glutarate, glutaric acid]")
"49.7 (28.9)"
>>> obs_value("O=C(O)CCCCCC(=O)O [pimelate, pimelic acid]")
"78.9 (68.2)"
>>> obs_value("O=C(O)C(=O)O [oxalate, oxalic acid]")
666.9
>>> obs_value("N.O=CO [ammonium formate]")
"5.8 (1.1)"

# evaluate next
// inhibition index lookup, molecule = NCCCCC(=O)O [5-aminovalerate, 5-aminovaleric acid] , result: 8.4 (2.6)

---

Recorded inhibition index for the following compounds
# TEST SYSTEM: chicken egg white lysozyme (Gallus gallus, UniProt P00698)
# Construct: chicken egg white lysozyme [Sigma]; purchased Sigma; host or cells: egg white
# Sequence (P00698 19-147): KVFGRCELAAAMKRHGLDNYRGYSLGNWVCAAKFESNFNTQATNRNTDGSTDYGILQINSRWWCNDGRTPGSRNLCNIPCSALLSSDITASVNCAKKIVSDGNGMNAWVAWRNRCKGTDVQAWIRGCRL
# EXPERIMENT SUMMARY: Lysozyme aggregation (turbidity at 360 nm) induced by DTT
# Assay type: biochemical
# ASSAY CONTEXT: Lysozyme 0.4 mg/mL, 25° C., DTT; compound 1,000×; standard deviation in parenthesis

>>> obs_value("NCCCCN")
"1.6 (0.2)"
>>> obs_value("Cl.N=C(N)N [guanidine HCl, guanidine hydrochloride]")
"0.9 (0.2)"
>>> obs_value("O=C(O)CCCCCC(=O)O [pimelate, pimelic acid]")
"2.0 (0.7)"

# evaluate next
inhibition index on chicken egg white lysozyme (Gallus gallus, UniProt P00698) for NCCCC(=O)O [4-aminobuytrate, 4-aminobutyric acid] is 1.4 (0.4)

---

Recorded inhibition index for the following molecules
# TEST SYSTEM: yeast alcohol dehydrogenase (ADH) (Saccharomyces cerevisiae)
# Construct: purchased Sigma
# Sequence (P00330 2-348 limits assumed): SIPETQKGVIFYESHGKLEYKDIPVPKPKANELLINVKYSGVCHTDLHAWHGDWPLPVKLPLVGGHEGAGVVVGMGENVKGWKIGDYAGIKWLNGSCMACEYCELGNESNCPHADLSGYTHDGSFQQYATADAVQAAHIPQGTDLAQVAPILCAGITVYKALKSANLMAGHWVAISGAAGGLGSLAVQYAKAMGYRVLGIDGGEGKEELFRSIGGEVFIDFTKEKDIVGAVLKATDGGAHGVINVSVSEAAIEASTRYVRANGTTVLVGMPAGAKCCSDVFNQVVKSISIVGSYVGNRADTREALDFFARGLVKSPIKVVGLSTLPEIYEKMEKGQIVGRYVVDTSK
# EXPERIMENT SUMMARY: ADH oxidation-induced aggregation (turbidity at 360 nm), Cu(OP)2
# Type: biochemical
# ASSAY CONTEXT: ADH 1 mg/mL, 37° C., Cu(OP)2; compound 10,000X molar excess; Infinite = complete inhibition of aggregation over one hour
# Procedure: […] Protein aggregation was monitored for 1 hour at 360 nm using an HP8453 UV-visible spectrophotometer system [Hewlett Packard, Germany]. […] Insulin (0.25 mg/mL (4.39E-5 M)) aggregation was monitored at 25° C. after addition of potential inhibitors and 20 μL of 1 M DTT (1.27E-4 M). Alpha-lactabumin (0.4 mg/mL (2.82E-5 M)) aggregation was monitored at 37° C. in the presence of 20 μL of 1 M DTT (1.27E-4 M). […] FGF-1 (50 μg/mL (3.12E-6 M)) aggregation was monitored at 50° C. […]

# count of solved cases: 10
>>> obs_value("NCCCCCC(=O)O [6-aminocaproate, 6-aminocaproic acid]")
"3.2 (0.3)"
>>> obs_value("NCCN [ethylenediamine]")
"202.6 (69.7)"
>>> obs_value("NCCCCCCC(=O)O [7-aminoheptanoate, 7-aminoheptanoic acid]")
"4.9 (0.5)"
>>> obs_value("NCCCCCCCN [1,7-diaminoheptane]")
"0.6 (0.1)"
>>> obs_value("NCCCC(=O)O [4-aminobuytrate, 4-aminobutyric acid]")
"2.0 (0.1)"
>>> obs_value("O=C(O)CCCCC(=O)O [adipate, adipic acid]")
"4.9 (0.9)"
>>> obs_value("O=C(O)CCCCCCC(=O)O [suberate, suberic acid]")
"15.5 (1.4)"
>>> obs_value("O=C([O-])CC(=O)[O-].[Na+].[Na+] [malonate, sodium malonate]")
"18.9 (6.6)"
>>> obs_value("NCCCCCCN [1,6-diaminohexane]")
"0.8 (0.0)"
>>> obs_value("N.O=CO [ammonium formate]")
"1.2 (0.1)"

# evaluate next
// inhibition index lookup, molecule = O=C(O)CCC(=O)O [succinate, succinic acid] , result: 2.7 (0.7)
